# target_under_test: Dual specificity calcium/calmodulin-dependent 3',5'-cyclic nucleotide phosphodiesterase 1A (Human, UniProt P54750)
# Sequence (P54750 whole entry): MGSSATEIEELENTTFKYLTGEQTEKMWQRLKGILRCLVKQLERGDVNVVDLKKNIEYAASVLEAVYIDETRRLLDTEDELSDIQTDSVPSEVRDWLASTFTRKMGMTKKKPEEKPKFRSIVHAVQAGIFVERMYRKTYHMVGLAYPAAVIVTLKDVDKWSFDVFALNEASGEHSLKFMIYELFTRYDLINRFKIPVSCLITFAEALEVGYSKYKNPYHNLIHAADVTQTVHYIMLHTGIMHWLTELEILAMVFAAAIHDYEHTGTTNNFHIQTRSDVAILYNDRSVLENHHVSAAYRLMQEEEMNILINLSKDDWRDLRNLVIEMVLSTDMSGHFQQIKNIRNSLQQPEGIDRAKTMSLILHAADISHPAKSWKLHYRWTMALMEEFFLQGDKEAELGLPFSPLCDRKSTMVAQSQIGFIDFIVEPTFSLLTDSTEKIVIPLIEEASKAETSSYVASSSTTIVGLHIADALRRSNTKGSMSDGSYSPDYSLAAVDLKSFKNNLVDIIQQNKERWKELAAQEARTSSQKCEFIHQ
# experiment_notes: Enzyme immunoassay
reported_property: pIC50
pIC50 here is simply -log10 of the concentration when that concentration is written in mol/L.

Form field pIC50, entry O=c1[nH]c(CN2CC(Oc3cccnc3)C2)cn2c(C3CCOCC3)ncc12 [US20250019381, Compound (P2)] : 5.28

Origin of the recorded values: BindingDB's records for patent US20250019381
